Molecular target: recombinant CREBBP bromodomain (Homo sapiens)
Construct: recombinant CREBBP bromodomain obtained from BPS Bioscience, USA
Sequence (Q92793 1085-1192 limits assumed): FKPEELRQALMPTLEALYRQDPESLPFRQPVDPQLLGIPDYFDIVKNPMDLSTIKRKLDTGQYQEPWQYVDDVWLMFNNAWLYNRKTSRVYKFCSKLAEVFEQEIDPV
Assay: CBP TR-FRET displacement assay
Settings: dose-response, read-out: IC50 (group A, B, C)
Recorded IC50 by entry

Worked examples, 5 compounds total:
Cc1cc2c(N3CCCc4cc(-c5cnn(C)c5)c(C(F)F)cc43)nc(C3=CCOCC3)cc2n(C)c1=O : 0.051 to 0.1 µM
Cc1cc2c(N3CCCc4cc(-c5cnn(C)c5)c(C(F)F)cc43)nc(N3C4CCC3COC4)cc2n(C)c1=O : < 0.05 µM
Cc1cc2c(N3CCN(C)c4cc(-c5cnn(C)c5)ncc43)cc(OCc3ncco3)cc2n(C)c1=O : 0.051 to 0.1 µM
Cc1cc2c(N3CCN(C)c4cc(F)c(S(N)(=O)=O)cc43)cc(N3CCOCC3)cc2n(C)c1=O : < 0.05 µM
Cc1cc2c(N3CCCc4cc(-c5cnn(C)c5)c(C(F)F)cc43)nc(N3CCC(O)C3)cc2n(C)c1=O (centres unmarked) : < 0.05 µM

Now examine the next entry.
Task: Any idea what IC50 was measured for COc1cc(N2CCN(C)c3cc(-c4cnn(C)c4)nc(C)c32)c2cc(C)c(=O)n(C)c2c1 ?
Result: < 0.05 µM
